Molecular target: acetolactate synthase (ALS)
Construct: native ALS from leaf extract of susceptible population 18-NJ (ammonium sulfate precipitated, desalted; ALS1/ALS2/ALS3 copies not separated)
Assay: in vitro ALS activity assay (acetoin formation, […] nm) in desalted leaf enzyme extract
quantityMeasured: pIC50
Units for pIC50: none; it is -log10 of a concentration expressed in mol/L.

Ask: For `COc1cnc(OC)n2nc(NS(=O)(=O)c3c(OCC(F)F)cccc3C(F)(F)F)nc12` , write its pIC50.
Reply: 5.91
